# target-of-assay: Estrogen receptor beta (Homo sapiens); also: in other assays of this panel Not Active means under 50% inhibition at 10 µM
# Sequence (Q92731 whole entry): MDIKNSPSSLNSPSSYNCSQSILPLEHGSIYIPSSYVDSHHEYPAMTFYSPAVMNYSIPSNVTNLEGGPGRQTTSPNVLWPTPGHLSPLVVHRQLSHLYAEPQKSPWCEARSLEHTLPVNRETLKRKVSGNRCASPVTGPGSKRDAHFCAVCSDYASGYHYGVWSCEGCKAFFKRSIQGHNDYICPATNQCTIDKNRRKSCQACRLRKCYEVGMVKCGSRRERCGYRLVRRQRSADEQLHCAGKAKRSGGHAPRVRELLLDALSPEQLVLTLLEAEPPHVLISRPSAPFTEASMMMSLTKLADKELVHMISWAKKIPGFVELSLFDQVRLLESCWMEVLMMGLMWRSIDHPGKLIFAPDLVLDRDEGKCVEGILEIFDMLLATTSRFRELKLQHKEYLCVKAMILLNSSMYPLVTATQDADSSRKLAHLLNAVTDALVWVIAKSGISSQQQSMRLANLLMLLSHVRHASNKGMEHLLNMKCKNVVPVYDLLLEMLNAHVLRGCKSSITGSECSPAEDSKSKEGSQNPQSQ
# settings: sf9

compound: O=[As][O-].[Na+] [SODIUM ARSENITE]
target-of-assay: Estrogen receptor beta (Homo sapiens); also: in other assays of this panel Not Active means under 50% inhibition at 10 µM
IC50: Not Active

compound: Cc1[nH]c(=O)c(C#N)cc1-c1ccncc1
target-of-assay: Estrogen receptor beta (Homo sapiens); also: in other assays of this panel Not Active means under 50% inhibition at 10 µM
IC50: Not Active

compound: O=C(Nc1ccc(Cl)c(Cl)c1)c1cc(Cl)cc(Cl)c1O [3,3',4',5-TETRACHLOROSALICYLANILIDE]
target-of-assay: Estrogen receptor beta (Homo sapiens); also: in other assays of this panel Not Active means under 50% inhibition at 10 µM
IC50: Not Active

compound: Oc1ncnc2[nH]ncc12
target-of-assay: Estrogen receptor beta (Homo sapiens); also: in other assays of this panel Not Active means under 50% inhibition at 10 µM
IC50: Not Active

compound: O=C(O)CNCP(=O)(O)O [GLYPHOSATE]
target-of-assay: Estrogen receptor beta (Homo sapiens); also: in other assays of this panel Not Active means under 50% inhibition at 10 µM
IC50: Not Active

compound: CC(CN1c2ccccc2Sc2ccccc21)N(C)C (centres undefined)
target-of-assay: Estrogen receptor beta (Homo sapiens); also: in other assays of this panel Not Active means under 50% inhibition at 10 µM
IC50: Not Active

compound: C#C[C@]1(O)CC[C@H]2[C@@H]3CCC4=CC(=O)CC[C@@H]4[C@H]3CC[C@@]21C
target-of-assay: Estrogen receptor beta (Homo sapiens); also: in other assays of this panel Not Active means under 50% inhibition at 10 µM
IC50: Not Active

compound: CCN(CC)CCNC(=O)c1cc(Cl)c(N)cc1OC [METOCLOPRAMIDE]
target-of-assay: Estrogen receptor beta (Homo sapiens); also: in other assays of this panel Not Active means under 50% inhibition at 10 µM
IC50: Not Active

compound: CC(C)Cn1cnc2c(N)nc3ccccc3c21
target-of-assay: Estrogen receptor beta (Homo sapiens); also: in other assays of this panel Not Active means under 50% inhibition at 10 µM
IC50: Not Active

compound: CO[C@H]1O[C@@H]2O[C@@]3(C)CC[C@H]4[C@H](C)CC[C@@H]([C@H]1C)[C@@]24OO3
target-of-assay: Estrogen receptor beta (Homo sapiens); also: in other assays of this panel Not Active means under 50% inhibition at 10 µM
IC50: Not Active

compound: C#C[C@]1(O)CC[C@H]2[C@@H]3[C@H](C)CC4=C(CCC(=O)C4)[C@H]3CC[C@@]21C
target-of-assay: Estrogen receptor beta (Homo sapiens); also: in other assays of this panel Not Active means under 50% inhibition at 10 µM
IC50: Not Active

compound: O=C(O)c1cc(/N=N/c2ccc(S(=O)(=O)Nc3ccccn3)cc2)ccc1O
target-of-assay: Estrogen receptor beta (Homo sapiens); also: in other assays of this panel Not Active means under 50% inhibition at 10 µM
IC50: Not Active

compound: CCN(CC)C(=S)SSC(=S)N(CC)CC
target-of-assay: Estrogen receptor beta (Homo sapiens); also: in other assays of this panel Not Active means under 50% inhibition at 10 µM
IC50: Not Active

compound: CN1C[C@H](CNC(=O)OCc2ccccc2)C[C@@H]2c3cccc4c3c(cn4C)C[C@H]21
target-of-assay: Estrogen receptor beta (Homo sapiens); also: in other assays of this panel Not Active means under 50% inhibition at 10 µM
IC50: Not Active

compound: CN(Cc1cc(Br)cc(Br)c1N)C1CCCCC1
target-of-assay: Estrogen receptor beta (Homo sapiens); also: in other assays of this panel Not Active means under 50% inhibition at 10 µM
IC50: Not Active

compound: CC[C@H](C)[C@@H](CO[C@@H](Cc1ccccc1)C(=O)N[C@@H](CCS(C)(=O)=O)C(=O)OC(C)C)NC[C@@H](N)CS
target-of-assay: Estrogen receptor beta (Homo sapiens); also: in other assays of this panel Not Active means under 50% inhibition at 10 µM
IC50: Not Active

compound: CC(C)(c1ccc(O)cc1)c1ccc(O)cc1
target-of-assay: Estrogen receptor beta (Homo sapiens); also: in other assays of this panel Not Active means under 50% inhibition at 10 µM
IC50: Not Active

compound: Cc1ccc(Cl)c(Nc2ccccc2C(=O)O)c1Cl
target-of-assay: Estrogen receptor beta (Homo sapiens); also: in other assays of this panel Not Active means under 50% inhibition at 10 µM
IC50: Not Active

compound: O=C(O)CCc1nc(-c2ccccc2)c(-c2ccccc2)o1
target-of-assay: Estrogen receptor beta (Homo sapiens); also: in other assays of this panel Not Active means under 50% inhibition at 10 µM
IC50: Not Active

----------
# test-summary: DRUGMATRIX: Glutamate, NMDA, Agonism radioligand binding (ligand: [3H] CGP-39653)
# Assay type: cell membranes, Rattus norvegicus, Wistar, Cerebral cortex, Membrane
# settings: Not Active = under 50% inhibition at 10 µM
test-readout: Ki

structure-smiles-string: O=C(OC[C@H]1O[C@@H](OC(=O)c2cc(O)c(O)c(OC(=O)c3cc(O)c(O)c(O)c3)c2)[C@H](OC(=O)c2cc(O)c(O)c(OC(=O)c3cc(O)c(O)c(O)c3)c2)[C@@H](OC(=O)c2cc(O)c(O)c(OC(=O)c3cc(O)c(O)c(O)c3)c2)[C@@H]1OC(=O)c1cc(O)c(O)c(OC(=O)c2cc(O)c(O)c(O)c2)c1)c1cc(O)c(O)c(OC(=O)c2cc(O)c(O)c(O)c2)c1
test-readout: Ki
readout-value: Not Active
--
structure-smiles-string: O=C(O)CO
test-readout: Ki
readout-value: Not Active
